- system-under-test: Histone deacetylase 1 (Homo sapiens, UniProt Q13547)
- Sequence (Q13547 whole entry): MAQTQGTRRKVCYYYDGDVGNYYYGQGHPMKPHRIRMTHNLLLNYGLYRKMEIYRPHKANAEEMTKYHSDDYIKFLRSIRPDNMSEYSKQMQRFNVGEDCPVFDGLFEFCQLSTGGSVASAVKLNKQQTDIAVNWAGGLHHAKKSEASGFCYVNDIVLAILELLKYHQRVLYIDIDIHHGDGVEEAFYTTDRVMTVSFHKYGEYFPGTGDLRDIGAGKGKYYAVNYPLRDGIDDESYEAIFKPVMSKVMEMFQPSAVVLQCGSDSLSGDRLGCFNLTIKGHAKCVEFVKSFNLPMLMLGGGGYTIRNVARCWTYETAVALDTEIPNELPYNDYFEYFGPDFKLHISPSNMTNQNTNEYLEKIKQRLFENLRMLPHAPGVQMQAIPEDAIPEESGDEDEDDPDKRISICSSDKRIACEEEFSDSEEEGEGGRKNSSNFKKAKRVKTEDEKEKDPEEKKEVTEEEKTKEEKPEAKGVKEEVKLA
- test-summary: Inhibition of recombinant HDAC1 (unknown origin) measured after 30 mins by fluorescence assay
readout-label: IC50

[ask] Return the recorded IC50 value; entry: `Cc1cc(-c2ccc(/C=C3\C(=O)N(c4ccc(C(=O)O)cc4)N=C3C3CC3)s2)c(C(F)(F)F)cc1C`
[reply] > 100 µM

====

- system-under-test: UniProt:Q09472
- Sequence (Q09472 whole entry, the tested form may be a part): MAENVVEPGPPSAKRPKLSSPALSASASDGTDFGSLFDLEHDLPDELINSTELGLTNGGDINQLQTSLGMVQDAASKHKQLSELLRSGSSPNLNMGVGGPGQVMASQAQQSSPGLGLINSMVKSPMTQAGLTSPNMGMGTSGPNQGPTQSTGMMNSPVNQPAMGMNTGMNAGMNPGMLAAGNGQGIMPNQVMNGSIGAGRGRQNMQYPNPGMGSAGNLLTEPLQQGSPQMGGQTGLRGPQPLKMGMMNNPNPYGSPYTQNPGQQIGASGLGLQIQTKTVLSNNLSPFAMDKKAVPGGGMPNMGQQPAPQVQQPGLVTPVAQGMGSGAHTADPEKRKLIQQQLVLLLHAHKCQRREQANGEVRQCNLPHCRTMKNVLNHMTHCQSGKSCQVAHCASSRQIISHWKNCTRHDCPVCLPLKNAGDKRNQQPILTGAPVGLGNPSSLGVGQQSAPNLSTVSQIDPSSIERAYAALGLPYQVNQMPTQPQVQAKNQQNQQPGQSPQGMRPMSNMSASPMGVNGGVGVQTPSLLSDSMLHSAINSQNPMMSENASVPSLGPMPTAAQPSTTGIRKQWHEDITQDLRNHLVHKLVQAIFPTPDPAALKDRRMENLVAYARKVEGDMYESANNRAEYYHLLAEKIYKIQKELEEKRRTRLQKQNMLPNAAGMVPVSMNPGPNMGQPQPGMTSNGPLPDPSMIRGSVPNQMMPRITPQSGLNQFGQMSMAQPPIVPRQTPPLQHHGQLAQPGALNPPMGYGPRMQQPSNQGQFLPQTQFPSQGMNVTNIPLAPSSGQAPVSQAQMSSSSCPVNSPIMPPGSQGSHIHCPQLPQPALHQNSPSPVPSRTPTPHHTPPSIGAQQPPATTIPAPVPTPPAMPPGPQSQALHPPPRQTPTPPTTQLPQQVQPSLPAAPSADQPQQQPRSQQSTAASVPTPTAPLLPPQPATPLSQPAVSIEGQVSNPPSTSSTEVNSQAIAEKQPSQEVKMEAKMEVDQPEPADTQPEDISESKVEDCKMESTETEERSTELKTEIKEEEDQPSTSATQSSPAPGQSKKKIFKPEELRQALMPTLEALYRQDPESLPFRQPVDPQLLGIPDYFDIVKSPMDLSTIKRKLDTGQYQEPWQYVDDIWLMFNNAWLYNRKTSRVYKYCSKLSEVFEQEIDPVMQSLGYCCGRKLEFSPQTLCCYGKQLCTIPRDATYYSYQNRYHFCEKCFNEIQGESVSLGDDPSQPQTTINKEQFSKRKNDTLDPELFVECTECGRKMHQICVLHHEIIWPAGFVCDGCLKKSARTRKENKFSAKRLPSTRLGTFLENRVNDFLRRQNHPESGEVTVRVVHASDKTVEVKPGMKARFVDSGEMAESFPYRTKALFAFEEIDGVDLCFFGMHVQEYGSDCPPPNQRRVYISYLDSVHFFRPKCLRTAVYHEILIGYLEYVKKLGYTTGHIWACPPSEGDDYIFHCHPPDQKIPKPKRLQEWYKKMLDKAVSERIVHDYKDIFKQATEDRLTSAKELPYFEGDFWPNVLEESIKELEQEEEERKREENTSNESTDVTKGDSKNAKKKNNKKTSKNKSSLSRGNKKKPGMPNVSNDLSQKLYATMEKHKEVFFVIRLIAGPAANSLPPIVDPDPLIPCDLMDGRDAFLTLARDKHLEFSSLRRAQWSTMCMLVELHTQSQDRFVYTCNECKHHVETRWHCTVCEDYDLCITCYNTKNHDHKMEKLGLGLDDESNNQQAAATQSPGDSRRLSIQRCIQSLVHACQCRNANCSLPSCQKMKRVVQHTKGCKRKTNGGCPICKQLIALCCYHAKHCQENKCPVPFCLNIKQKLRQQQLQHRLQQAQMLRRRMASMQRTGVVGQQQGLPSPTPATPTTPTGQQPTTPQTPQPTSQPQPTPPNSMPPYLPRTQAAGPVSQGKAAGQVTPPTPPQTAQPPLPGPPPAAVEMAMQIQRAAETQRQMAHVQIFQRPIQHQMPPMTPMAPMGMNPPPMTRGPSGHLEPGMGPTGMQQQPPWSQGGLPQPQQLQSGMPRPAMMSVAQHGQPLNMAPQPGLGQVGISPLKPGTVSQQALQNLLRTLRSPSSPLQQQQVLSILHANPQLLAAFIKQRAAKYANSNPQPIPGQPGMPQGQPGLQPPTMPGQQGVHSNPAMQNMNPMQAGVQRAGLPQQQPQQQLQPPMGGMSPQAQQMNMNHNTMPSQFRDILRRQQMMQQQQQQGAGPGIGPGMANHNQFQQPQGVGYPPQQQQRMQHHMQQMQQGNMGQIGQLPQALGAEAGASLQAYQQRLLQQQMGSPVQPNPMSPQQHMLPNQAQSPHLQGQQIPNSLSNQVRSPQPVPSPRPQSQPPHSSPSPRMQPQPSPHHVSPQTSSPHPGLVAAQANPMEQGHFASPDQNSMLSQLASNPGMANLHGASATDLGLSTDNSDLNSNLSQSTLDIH
- test-summary: Inhibition of p300 (unknown origin) using biotinylated histone H3 (1 to 21 residues) as substrate measured after 90 mins in presence of Acetyl CoA by AlphaLISA assay
// reported log10(IC50) per item
Friendly reminder: values = log10 of IC50, unit nM.

// worked examples, log10(IC50) included
{"smiles-data": "CC1=NN(c2ccc(C(=O)O)cc2)C(=O)/C1=C\\c1ccc(-c2cc(C)c(C)cc2[N+](=O)[O-])[nH]1", "log10(IC50)": 3.29}
{"smiles-data": "CC1=NN(c2cc(F)c(O)c(F)c2)C(=O)/C1=C\\c1ccc(-c2ccccc2C(F)F)o1", "log10(IC50)": 3.78}
{"smiles-data": "CC1=NN(c2ccc(S(C)(=O)=O)cc2)C(=O)/C1=C\\c1ccc(-c2cc(C)c(C)cc2[N+](=O)[O-])o1", "log10(IC50)": 3.61}
{"smiles-data": "Cc1cc(-c2ccc(/C=C3\\C(=O)N(c4ccc(C(=O)O)cc4)N=C3C3CC3)s2)c(C(F)(F)F)cc1C", "log10(IC50)": 2.20}
{"smiles-data": "Cc1cc(-c2ccc(/C=C(\\C#N)C(=O)Nc3ccc(C(=O)O)cc3)o2)c([N+](=O)[O-])cc1C", "log10(IC50)": 3.85}

[ask] Lab note: UniProt:Q09472 assay, enter log10(IC50) for `CC1=NN(c2ccc(C(=O)O)cc2)C(=O)/C1=C(/C)c1ccc(-c2cc(C)c(C)cc2[N+](=O)[O-])o1` here
[reply] 3.32

[ask] Retrieve log10(IC50) on UniProt:Q09472; query `CC1=NN(c2ccc(C#N)cc2)C(=O)/C1=C\c1ccc(-c2cc(C)c(C)cc2[N+](=O)[O-])o1`
[reply] 3.18

[ask] GET log10(IC50) | system: UniProt:Q09472 | item: `CC1=NN(c2ccc(C(=O)O)cc2)C(=O)/C1=C\c1ccc(-c2cc(C)c(C)cc2[N+](=O)[O-])s1`
[reply] 2.36

[ask] Tell me log10(IC50) of `CC1=NN(c2ccc(C(=O)O)cc2)C(=O)/C1=C\c1cnc(-c2cc(C)c(C)cc2[N+](=O)[O-])s1` when tested on UniProt:Q09472.
[reply] 2.93

====

- Tested on: MCF7
- test-summary: Antiproliferative activity against HER2-negative human MCF7 cells measured after 6 days of incubation by sulforhodamine B assay
- Format: functional, cell-based
- measurement-parameters: MCF7, 144 h
readout-label: pIC50
Answer as the number alone; pIC50 is minus log10 of concentration in mol/L.

[ask] Provide pIC50, recorded with MCF7, of `CC1=NN(c2ccc(C(=O)O)cc2)C(=O)/C1=C\c1ccc(-c2cc(C)c(C)cc2[N+](=O)[O-])s1`
[reply] 4.56

[ask] Output reported pIC50 of the compound `CC1=NN(c2ccc(C(=O)O)cc2)C(=O)/C1=C\c1ccc(-c2cc(C)c(C)cc2[N+](=O)[O-])o1` on MCF7.
[reply] 4.58

[ask] GET pIC50 where system = MCF7 and item = `Cc1cc(-c2ccc(/C=C3\C(=O)N(c4ccc(C(=O)O)cc4)N=C3C3CC3)s2)c(C(F)(F)F)cc1C`
[reply] 4.65

[ask] Retrieve pIC50 on MCF7; query `CC1=NN(c2ccc(C(=O)O)cc2)C(=O)/C1=C\c1ccc(-c2cc(C)c(C)cc2C(F)(F)F)o1`
[reply] 4.96

[ask] Jot down pIC50 (MCF7) of `CC1=NN(c2ccc(C(=O)O)cc2)C(=O)/C1=C\c1ccc(-c2cccc3c2C(=O)CC3)o1` .
[reply] 4.57

[ask] Provide the reported pIC50 (system: MCF7) for `CC1=NN(c2ccc(C(=O)O)cc2)C(=O)/C1=C\c1ccc(-c2ccccc2OC(F)(F)F)o1`
[reply] 4.62
